B1: Tyrosine-protein kinase Lck, residues 63 to 120; numbered along this chain, P06239 (parent)
chain: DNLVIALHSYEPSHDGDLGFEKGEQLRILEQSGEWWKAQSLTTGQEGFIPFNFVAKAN

Variants of: B1
Test: abundance fitness (aPCA) (normalised: wild type 0, dead -1); higher = more abundant; growth selection in yeast, the domain comes from the species named
Details: Homo sapiens
Label scheme, based on abundance fitness: lo (below -0.6), med (-0.6 to below -0.2), hi (-0.2 or more)

Into which bin does this variant go? "F20Y"
lo

Same question for "L3C" please.
med

Same question for "Q31T" please.
med

Same question for "E34T" please.
hi

Same question for "E30D" please.
hi

Same question for "A57G" please.
hi

Same question for "L29S" please.
med

Same question for "V54R" please.
lo

Same question for "F53L" please.
hi

Same question for "F53G" please.
med

Same question for "N2E" please.
med

Same question for "E24R" please.
lo

Same question for "Q31Y" please.
med

Same question for "A38D" please.
lo

Same question for "G16T" please.
hi

Same question for "G44V" please.
lo

Same question for "V4F" please.
hi

Same question for "I28Q" please.
lo

Same question for "R27S" please.
med

Same question for "T42M" please.
hi

Same question for "P12G" please.
med

Same question for "I28E" please.
lo

Same question for "E11H" please.
hi

Same question for "F53C" please.
hi

Same question for "R27N" please.
med

Same question for "F20V" please.
med

Same question for "D17N" please.
hi

Same question for "E21Y" please.
med

Same question for "A55G" please.
hi

Same question for "E24I" please.
lo

Same question for "L18S" please.
lo
